Test system: KM-20L2
Test Description: NCI tumour cell line growth inhibition, 48 h
The source made the active and inactive calls. No stated cut-off is given here; in the data, active = GI50 up to about 1.1 µM and inactive = higher.
Test Readout: GI50

- Compound: "[O-][S+]1c2ccccc2N=C(c2ccc3ccccc3c2)CC1c1ccccc1F (stereo not given)"
  Study System: "KM-20L2"
  Test Readout: "GI50"
  Result: "> 100 µM (inactive)"
- Compound: "COc1ccc(N2C(=O)/C(=C/c3ccc(N(CCC#N)CCC#N)cc3C)N=C2/C=C\\c2ccccc2)cc1"
  Study System: "KM-20L2"
  Test Readout: "GI50"
  Result: "4.73 µM (inactive)"
- Compound: "COc1cccc(-c2cc(O)c3ccccc3n2)c1"
  Study System: "KM-20L2"
  Test Readout: "GI50"
  Result: "9.77 µM (inactive)"
- Compound: "COc1ccc(CCn2c(=O)c3ccccc3n(C)c2=O)cc1"
  Study System: "KM-20L2"
  Test Readout: "GI50"
  Result: "63.4 µM (inactive)"
- Compound: "NC(=S)N/N=C1\\C(=O)N(c2cccc([N+](=O)[O-])c2)C(=O)C1C(=O)Nc1cccc([N+](=O)[O-])c1 (stereo not given)"
  Study System: "KM-20L2"
  Test Readout: "GI50"
  Result: "> 100 µM (inactive)"
- Compound: "COc1ccc2[nH]cc(CCNC(C)=O)c2c1 [MELATONIN]"
  Study System: "KM-20L2"
  Test Readout: "GI50"
  Result: "> 100 µM (inactive)"
- Compound: "COc1ccc(Nc2nnc(-c3nsc4ccccc34)s2)cc1"
  Study System: "KM-20L2"
  Test Readout: "GI50"
  Result: "> 100 µM (inactive)"
- Compound: "CN(C)C(=S)/N=c1\\ssc(=S)n1-c1ccccc1"
  Study System: "KM-20L2"
  Test Readout: "GI50"
  Result: "16.6 µM (inactive)"
- Compound: "O=C(Cc1nc2ccccc2c(=O)n1-c1ccccc1Cl)c1ccncc1"
  Study System: "KM-20L2"
  Test Readout: "GI50"
  Result: "> 100 µM (inactive)"

// moving on: another record for GI50
Recorded GI50 of Cc1cc(NS(=O)(=O)c2ccc(NC(=O)c3ccc(Cl)c4c(Nc5ccc(S(=O)(=O)N=C(N)N)cc5)c5ccccc5nc34)cc2)no1 , please.
> 100 µM (inactive)

----------
HCT-15 data, read-out log10 GI50
The common logarithm of GI50 in µM is what is listed.

Use the examples below as a reference point.
- Compound: "CCN(CC)CCC(=O)/C=C/c1ccccc1"
  Result: 1.19
- Compound: "N/C(=N\\c1ccc(Cl)cc1)NS(=O)(=O)c1ccc(S(=O)(=O)c2ccccc2)s1"
  Result: 1.24
- Compound: "CC[C@@]1(O)C(=O)OCc2c1cc1n(c2=O)Cc2c-1nc1ccc(O)cc1c2CC[Si](C)(C)C"
  Result: -0.99
- Compound: "CC(C)(C)CC(C)(C)c1ccc(OCCOCC[N+](C)(C)Cc2ccccc2)cc1 [BENZETHONIUM CHLORIDE]"
  Result: 1.31
- Compound: "CC(NNC(=O)c1cc[n+]([BH2-]C#N)cc1)c1ccc(Cl)c(Cl)c1 (stereo not drawn)"
  Result: 1.50

Recorded log10 GI50 of O=C1C(NCCc2cc(Br)c(O)c(Br)c2)=CC(=O)c2ncccc21 , please.
0.76

Another: O=C(NCCCCCCCN1CCCCCCC1)C(C1CCCCC1)C1CCCCC1
0.61

Another: CN(C)CCCn1c(-c2ccc(Br)cc2)cs/c1=N\c1ccccc1
1.32

Another: c1ccc2c(c1)c1c(n2CCOCCCN2CCCCC2)CCCC1
1.15

----------
System: A498
Test Description: NCI tumour cell line growth inhibition, 48 h
Active and inactive are the calls of the source. Rule as the data show it: active = GI50 up to about 1.1 µM and inactive = higher.
# GI50 listing for each entry below

- Compound: "Clc1cc(Cl)cc(/C=N/C23CC4CC(CC(C4)C2)C3)c1"
  GI50: "> 10 µM (inactive)"
- Compound: "NC(C(=O)OC(=O)c1ccccc1)C(=O)OC(=O)c1ccccc1"
  GI50: "> 100 µM (inactive)"
- Compound: "Oc1cccc2c1[nH]c1c(C3=C[C@@]4(O)CC/C=C\\CCCCN5CC[C@@H]3[C@]3(CC6/C=C\\CCCCN6[C@H]34)C5)nccc12 (stereo not given in full)"
  GI50: "2.24 µM (inactive)"
- Compound: "Cc1cccc(C)c1NC(=O)CCc1n[nH]c(=S)o1"
  GI50: "> 100 µM (inactive)"

// moving on: another record for GI50
Recorded GI50 of Cc1cc2c(c(/C=N/c3ccccc3O)c1)OC1(C=C2)Oc2ccccc2C(=O)N1C (stereo not given) , please.
18.6 µM (inactive)

----------
Tested on: SR
Test Description: NCI tumour cell line growth inhibition, 48 h
Active and inactive are the calls of the source. No stated cut-off is given here; in the data, active = GI50 up to about 1.1 µM and inactive = higher.
# GI50 listing for each entry below

- Molecule: "Oc1ccc(-c2nc(-c3cccnc3)c(-c3ccc(F)cc3)[nH]2)cc1"
  GI50: "16.9 µM (inactive)"
- Molecule: "COC(=O)C(Cc1ccccc1)NC(=O)CCCNC(=O)OCc1ccccc1 (stereo unspecified)"
  GI50: "44.7 µM (inactive)"
- Molecule: "CCOC(O)C(F)(F)F (stereo unspecified)"
  GI50: "> 100 µM (inactive)"
- Molecule: "O=C(NS(=O)(=O)c1ccccc1)C(Cc1ccccc1)C(Cc1ccccc1)C(=O)NS(=O)(=O)c1ccccc1 (stereo unspecified)"
  GI50: "> 100 µM (inactive)"

Recorded GI50 of CCOC(=O)CCC(NC(=O)c1ccc(OCc2nc3ccccc3n3cccc23)cc1)C(=O)OCC (stereo unspecified) , please.
9.62 µM (inactive)

Another: COC1(OC)C=CC2C1C1C=CC2C1(OC)OC (stereo unspecified)
> 100 µM (inactive)

Another: COc1ccc2oc(=O)cc(C)c2c1
> 100 µM (inactive)

----------
Test system: EKVX
Test Description: NCI tumour cell line growth inhibition, 48 h
Calls of active or inactive are those of the source. Rule as the data show it: active = GI50 up to about 1.1 µM and inactive = higher.
The reply should be one of these categories: active, inactive

Please state the recorded outcome for this compound: COc1cccc2c1OC(c1ccc(C#N)cc1)C([N+](=O)[O-])=C2 (stereo not given)
inactive

Another: CC1N=C(c2ccccc2)OC1=O (stereo not given)
inactive

Another: CCCC(=O)Nc1cc(/C=C/C(=O)N2C[C@H]3C[C@@]34C2=CC(=O)c2[nH]cc(C)c24)n(C)c1
active

Another: O=C1CCN2C(=Nc3cccc4cccc2c34)N1
active

----------
# GI50 listing for each entry below
Tested on: NCI-H522
Test Description: NCI tumour cell line growth inhibition, 48 h
The source made the active and inactive calls. Cut-off read from the data, not from the text of the source: active = GI50 up to about 1.1 µM and inactive = higher.

Use the examples below as a reference point.
- Molecule: "C=C(C)C1Cc2c(cc(OC)c3c(=O)c4cccc(O)c4oc23)O1 (stereo not given)"
  GI50: "16.6 µM (inactive)"
- Molecule: "CCCCCCCC1(N=[N+]=[N-])C(=O)c2ccccc2N(C)C1=O (stereo not given)"
  GI50: "64.9 µM (inactive)"
- Molecule: "COC(=O)C1(Cc2ccccc2)Cc2ccccc2C1O (stereo not given)"
  GI50: "56.8 µM (inactive)"
- Molecule: "Nc1nc(N)c2cc(Sc3cccc(C(F)(F)F)c3)ccc2n1 [WR-159412]"
  GI50: "2.7 µM (inactive)"

// moving on: another record for GI50
Recorded GI50 of C[N+](C)(C)CC(=O)N/N=C(\C(=O)NC1=C(Cl)C(=O)c2ccccc2C1=O)C(C#N)c1csc(-c2ccc([N+](=O)[O-])cc2)n1 (stereo not given) , please.
> 100 µM (inactive)

----------
# GI50 listing for each entry below
System: TK-10
Test Description: NCI tumour cell line growth inhibition, 48 h
Active and inactive are the calls of the source. Rule as the data show it: active = GI50 up to about 1.1 µM and inactive = higher.

Use the examples below as a reference point.
- Compound: "COc1ccc(N2C(=O)/C(=C/c3ccc(N(CCC#N)CCC#N)cc3C)N=C2/C=C\\c2ccccc2)cc1"
  GI50: "98.9 µM (inactive)"
- Compound: "COC(=O)c1c2c(c3[nH]c4ccccc4c3c1C(=O)OC)C(=O)C1=C(C2=O)C2(Cl)C(Cl)C(Cl)C1(Cl)C2(Cl)Cl (stereo not given)"
  GI50: "3.56 µM (inactive)"
- Compound: "Cc1cn(C2C=CC(COP(=O)(OCC3=CC(=O)c4ccccc4C3=O)N(C)CCCCCl)O2)c(=O)[nH]c1=O (stereo not given)"
  GI50: "20.7 µM (inactive)"
- Compound: "O=C(NS(=O)(=O)c1ccccc1)C(Cc1ccccc1)C(Cc1ccccc1)C(=O)NS(=O)(=O)c1ccccc1 (stereo not given)"
  GI50: "> 100 µM (inactive)"
- Compound: "N#C/C(C(=S)NCc1ccccc1)=C(/N)N1CCCC1"
  GI50: "> 100 µM (inactive)"

Recorded GI50 of O=C1C(NCCc2cc(Br)c(O)c(Br)c2)=CC(=O)c2ncccc21 , please.
17.1 µM (inactive)

Another: CC(=O)OC1C(=O)C(O)C(C)OC1O[C@@H]1C[C@@]2(C)[C@@H]3CC=C4[C@@H](C[C@H](O)C(=O)C4(C)C)[C@]3(C)C(=O)C[C@]2(C)[C@H]1[C@@](C)(O)C(=O)/C=C/C(C)(C)O (stereo not given in full)
1.85 µM (inactive)

Another: COC(=O)C(Cc1ccccc1)NC(=O)CCCNC(=O)OCc1ccccc1 (stereo not given)
> 100 µM (inactive)

Another: C[C@]12CCc3nonc3C1CC[C@@H]1C2CC[C@@]2(C)C1CC[C@@H]2O (stereo not given in full)
> 100 µM (inactive)

Another: COc1cc2c(cc1C)NC(=O)/C2=C/c1c(Cl)n(-c2ccccc2)c2ccccc12
28.9 µM (inactive)

Another: CC(=O)ONC(C(=O)C(C)(C)C)C(=O)C(C)(C)C
> 100 µM (inactive)

Another: c1ccc(COC[C@H]2C3OCC([C@H](OCc4ccccc4)[C@H]3OCc3ccccc3)N2Cc2ccccc2)cc1 (stereo not given in full)
> 52.6 µM (inactive)

Another: Cn1cccc1-c1ccc(-c2ccc(CO)[se]2)[se]1
28.1 µM (inactive)

Another: CC(C)(C)C1=CC(=C(c2ccc(-c3c4nc(c(-c5ccc(C(=C6C=C(C(C)(C)C)C(=O)C(C(C)(C)C)=C6)c6cc(C(C)(C)C)c(O)c(C(C)(C)C)c6)cc5)c5ccc([nH]5)c(-c5ccc(C(=C6C=C(C(C)(C)C)C(=O)C(C(C)(C)C)=C6)c6cc(C(C)(C)C)c(O)c(C(C)(C)C)c6)cc5)c5nc(c(-c6ccc(C(=C7C=C(C(C)(C)C)C(=O)C(C(C)(C)C)=C7)c7cc(C(C)(C)C)c(O)c(C(C)(C)C)c7)cc6)c6ccc3[nH]6)C=C5)C=C4)cc2)c2cc(C(C)(C)C)c(O)c(C(C)(C)C)c2)C=C(C(C)(C)C)C1=O
> 100 µM (inactive)

Another: CCCCOC(=O)Nc1ccc(S(=O)(=O)Nc2c(Cl)cccc2Cl)cc1
36.6 µM (inactive)
